biological target: T1, mouse TIRR (6-211) (M. musculus, UniProt Q8VHN8 6-211); experiment: ITC; 200-400 μM 53BP1 Tudor domain (wt or mutant) injected into 200 μl of 22-44 μM TIRR or Nudt16 (wt or mutant); 25 °C; 20 mM Tris-HCl pH 7.5, 150 mM NaCl; single-site binding model; settings: both partners purified
T1 construct: overhang left after TEV cleavage, printed as Gly-His-Met; TIRR (Nudt16L1), M. musculus, residues 6-211; Homodimer by ultracentrifugation and in the crystal; also called Nudt16L1; source: E. coli BL21-Codon PLUS(DE3)-RIPL, purified (Ni-NTA, TEV, heparin, Superdex200); not shown: His6, N-terminal, cleaved
T1 sequence (Q8VHN8 other isoform, or with tags, fused parts or gaps): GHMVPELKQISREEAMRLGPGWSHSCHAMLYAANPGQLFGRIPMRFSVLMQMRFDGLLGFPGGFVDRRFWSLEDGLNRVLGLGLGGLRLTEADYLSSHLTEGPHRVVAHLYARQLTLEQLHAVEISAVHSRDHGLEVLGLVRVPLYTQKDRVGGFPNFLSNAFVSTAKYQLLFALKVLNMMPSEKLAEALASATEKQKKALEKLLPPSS
Measured Kd accompanies every entry in the list below.
API: value field is a number in µM; no unit string.

Worked set:
53BP1 Tudor L1547G (domain or fragment, H. sapiens, overhang left after TEV cleavage, printed as Gly-His-Met; 53BP1 tandem Tudor domain, H. sapiens, residues 1484-1603; source: E. coli BL21-Codon PLUS(DE3)-RIPL, purified as the wt protein; not shown: His6, N-terminal, cleaved) GHMNSFVGLRVVAKWSSNGYFYSGKITRDVGAGKYKLLFDDGYECDVLGKDILLCDPIPLDTEVTAGSEDEYFSAGVVKGHRKESGELYYSIEKEGQRKWYKRMAVILSLEQGNRLREQYGLG | 17.3
53BP1 Tudor F1553A (domain or fragment, H. sapiens, overhang left after TEV cleavage, printed as Gly-His-Met; 53BP1 tandem Tudor domain, H. sapiens, residues 1484-1603; source: E. coli BL21-Codon PLUS(DE3)-RIPL, purified as the wt protein; not shown: His6, N-terminal, cleaved) GHMNSFVGLRVVAKWSSNGYFYSGKITRDVGAGKYKLLFDDGYECDVLGKDILLCDPIPLDTEVTALSEDEYASAGVVKGHRKESGELYYSIEKEGQRKWYKRMAVILSLEQGNRLREQYGLG | 1.5
53BP1 Tudor L1547A (domain or fragment, H. sapiens, overhang left after TEV cleavage, printed as Gly-His-Met; 53BP1 tandem Tudor domain, H. sapiens, residues 1484-1603; source: E. coli BL21-Codon PLUS(DE3)-RIPL, purified as the wt protein; not shown: His6, N-terminal, cleaved) GHMNSFVGLRVVAKWSSNGYFYSGKITRDVGAGKYKLLFDDGYECDVLGKDILLCDPIPLDTEVTAASEDEYFSAGVVKGHRKESGELYYSIEKEGQRKWYKRMAVILSLEQGNRLREQYGLG | 4.7
53BP1 Tudor D1521A (domain or fragment, H. sapiens, overhang left after TEV cleavage, printed as Gly-His-Met; 53BP1 tandem Tudor domain, H. sapiens, residues 1484-1603; source: E. coli BL21-Codon PLUS(DE3)-RIPL, purified as the wt protein; not shown: His6, N-terminal, cleaved) GHMNSFVGLRVVAKWSSNGYFYSGKITRDVGAGKYKLLFDAGYECDVLGKDILLCDPIPLDTEVTALSEDEYFSAGVVKGHRKESGELYYSIEKEGQRKWYKRMAVILSLEQGNRLREQYGLG | 5.4

Kindly review the next binder as well.
Prompt line: Quick one: Kd of 53BP1 Tudor Y1500A (domain or fragment, H. sapiens, overhang left after TEV cleavage, printed as Gly-His-Met; 53BP1 tandem Tudor domain, H. sapiens, residues 1484-1603; source: E. coli BL21-Codon PLUS(DE3)-RIPL, purified as the wt protein; not shown: His6, N-terminal, cleaved) GHMNSFVGLRVVAKWSSNGAFYSGKITRDVGAGKYKLLFDDGYECDVLGKDILLCDPIPLDTEVTALSEDEYFSAGVVKGHRKESGELYYSIEKEGQRKWYKRMAVILSLEQGNRLREQYGLG ?
Response line: 12.7
